Hey, just so you know, these numbers are from paper PMC10321576.

target: KDM7A (KIAA1718) dual domain; test: BLI
Sequence (chain, as listed by the source): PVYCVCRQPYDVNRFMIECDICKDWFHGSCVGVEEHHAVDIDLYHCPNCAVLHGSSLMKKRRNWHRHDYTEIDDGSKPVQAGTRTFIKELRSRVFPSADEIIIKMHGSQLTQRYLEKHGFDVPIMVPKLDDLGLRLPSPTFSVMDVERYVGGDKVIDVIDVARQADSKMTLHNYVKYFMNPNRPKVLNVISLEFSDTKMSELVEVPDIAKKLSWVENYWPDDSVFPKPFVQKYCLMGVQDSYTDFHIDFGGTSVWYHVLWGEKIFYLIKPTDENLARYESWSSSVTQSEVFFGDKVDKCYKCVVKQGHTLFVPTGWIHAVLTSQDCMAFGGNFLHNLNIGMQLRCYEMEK
pKd: −log10 of the molar value. Bridge positions count the residues as written; N and C are the ends. Ends that are not written are not given here.
result.type: pKd

> print(dat)
                                     binder  result.type  assay.value
1  {CH2CO}-YYLTHPYPSVFRTC (thioether N-14) [OC9, de novo cyclic peptide from mRNA display]          pKd         7.40
